molecular target: T1, mouse PD-L1 (full-length, on CHO-s cells) (mouse, UniProt Q9EP73 19-290); assay: FACS on mouse PD-L1-CHOK cells
T1 construct: whole, on cells; also called mouse PD-L1-CHO
T1 sequence (Q9EP73 19-290): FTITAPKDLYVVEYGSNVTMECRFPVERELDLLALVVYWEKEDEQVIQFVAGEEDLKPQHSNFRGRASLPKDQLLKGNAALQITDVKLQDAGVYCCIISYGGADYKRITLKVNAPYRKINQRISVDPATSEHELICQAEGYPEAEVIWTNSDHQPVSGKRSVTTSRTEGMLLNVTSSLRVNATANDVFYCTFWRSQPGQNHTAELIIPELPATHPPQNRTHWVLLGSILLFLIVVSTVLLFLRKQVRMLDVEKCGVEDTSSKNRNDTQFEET
Readout Kind: binding result

Binder	Meas Value
NB22D-21-123 (Fc fusion, not shown: 'full-length antibodies' were constructed) EVQLVESGGGLVQPGGSLRLSCAASPTASNIHGMHWYRQAPGKGREWVGMIFITGLTIVTDSVKGRFTISRDNAKNTLYLQMNTLRAEDTAVYYCAADVSGYGRAWGQGTTVTVSS	binds
NB22D-21-154 (Fc fusion, not shown: 'full-length antibodies' were constructed) EVQLVESGGGLVQPGGSLRLSCAASRTASNAMGMHWYRQAPGKGREWVGMIFRDGNTIVTDSVKGRFTISRDNAKNTLYLQMNTLRAEDTAVYYCAADVRGYGRAWGQGTTVTVSS	binds
NB22D-21-45-106 (Fc fusion, not shown: 'full-length antibodies' were constructed) EVQLVESGGGLVQPGGSLRLSCAASRRWSNIHGMHWYRQAPGKGREWVGSRFITGNTIVTDSVKGRFTISRDNAKNTLYLQMNTLRAEDTAVYYCAADVRGYGRAWGQGTTVTVSS	binds
